# protocol.notes: fission yeast growth modulation, primary screen, strain 972, OD600, 24 h, no modulator (AID 1090);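 further: basal condition with compound alone and no growth modifier present; test concentration not given here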
# particulars: S. pombe 972 growth, higher = more signal, called active from +8 up or from −8 down
The source made the active and inactive calls.
observation.type: z-score

- CC(=O)OC[C@H]1O[C@H](CC=NOC(C)CN2CCCc3nc(C)c(C)cc32)C=C[C@@H]1OC(C)=O (some centres undefined): 0.483 (inactive)

Dear reader, for each entry below, please note its z-score.
1. CC(CCC(=O)OC[C@H]1O[C@H](C#Cc2ccccc2)C=C[C@@H]1Oc1ccc(C)cc1)=NOC(C)CN1CCCCc2nc(C)c(C)cc21 (some centres undefined)
2. CC(CCN1CCCc2nc(C)c(C)cc21)=NO[C@H](C)c1cn([C@H](CO)Cc2ccccc2)nn1
3. CO[C@@H]1C=CCC(=O)N[C@@H](C)C(=O)OC[C@@H](NS(=O)(=O)c2ccc(C)cc2)[C@H](C)C=CCC(=O)OC[C@H]1C

["-0.324 (inactive)", "0.374 (inactive)", "-0.266 (inactive)"]

----------
# system: Torsin-1A-interacting protein 1 (Homo sapiens)
# protocol.notes: LAP1 binders from COS7 cell lysate, primary screen, small-molecule microarray, 635/667 nm fluorescence (AID 1116)
# particulars: COS7-hLAP1 lysate binding, 635 nm fluorescence, higher = more signal
Provide the reported composite z-score of each item.
Give bare numbers.

Below, 5 compounds whose answers are already recorded.
* CC(C)=CCCC(C)=CCON=C1C[C@@H](O)[C@@H](O)[C@@H]2[C@@H]3C(=O)N(Cc4ccc5c(c4)OCO5)C(=O)[C@@H]3CC[C@@H]12 | 0.999
* COCC#Cc1ccc([C@@H]2N[C@H](C(=O)O)CC[C@H]2C)cc1 | -0.416
* COCOc1ccc(Br)cc1C(=O)C=Cc1ccc2c(c1)OCO2 | 0.0258
* CCN1C(=O)[C@H]2[C@H]3[C@H](O)[C@H](O)CC(=NOC[C@@H](O)COCc4ccco4)[C@H]3CC[C@H]2C1=O | -0.0551
* CC(C)[C@@H](OCc1ccccc1)[C@H](C)C=NO[C@@H](C)c1cn([C@H](CO)Cc2ccccc2)nn1 | 0.217

Dear reader, for each entry below, please note its composite z-score.
1. O=C1C=C[C@@H](O)[C@@H]2[C@@H]3C(=O)N(Cc4ccccc4)C(=O)[C@@H]3CC[C@@H]12
2. COC(=O)[C@@H]1CC[C@H](C)[C@@H](c2ccc(Br)cc2)N1C(=O)C(F)(F)F
3. CC(CCN1CCc2nc(-c3ccccc3)c(-c3ccccc3)cc2C1)=NO[C@H](C)c1cn([C@H](CO)Cc2ccccc2)nn1
4. CCOC(=O)[C@H](CC(C)C)NC(=O)CCC1CC(OC(=O)NCCc2ccc(F)cc2)CC2(CCCC(COC(=O)NCc3cccc4ccccc34)O2)O1 (stereo partly specified)
5. COC(=O)[C@@H]1CC[C@H](C)[C@@H](c2ccc(Br)cc2)N1
6. C=CC[C@@H]1C=C[C@H](Oc2ccc(C)cc2)[C@@H](COC(=O)NCc2cccc3ccccc23)O1
7. COC(=O)[C@H](C)NC(=O)CCC1CC(OC(=O)NCc2cccc3ccccc23)CC2(CCCC(COC(=O)NCCC(C)C)O2)O1 (stereo partly specified)
8. CCOC(=O)[C@H](Cc1ccccc1)NC(=O)CCC1CC(OC(=O)NCCc2ccc(F)cc2)CC2(CCCC(COC(=O)NCCC(C)C)O2)O1 (stereo partly specified)

0.476
-0.287
0.34
0.219
0.488
0.0431
-0.228
0.523

Dear reader, for each entry below, please note its composite z-score.
1. COc1ccc(O[C@H]2C=C[C@@H](c3ccccc3)O[C@@H]2COC(=O)CCC(C)=NOC[C@@H](O)COCc2ccco2)cc1
2. CCN1C(=O)[C@H]2[C@H]3[C@H](O)[C@H](O)CC(=NOC[C@@H](O)[C@H]4O[C@@H]5OC(C)(C)O[C@@H]5[C@H]4O)[C@@H]3CC[C@H]2C1=O
3. O=C1[C@H]2[C@H]3[C@H](O)[C@H](O)CC(=NO[C@@H]4O[C@H](CO)[C@@H](O)[C@H](O)[C@H]4O)[C@@H]3CC[C@H]2C(=O)N1c1cccc(Oc2ccccc2)c1

1: -2.94; 2: -0.209; 3: 0.593
